biological target: Cytochrome P450 2C9 (Homo sapiens)
Sequence (P11712 whole entry): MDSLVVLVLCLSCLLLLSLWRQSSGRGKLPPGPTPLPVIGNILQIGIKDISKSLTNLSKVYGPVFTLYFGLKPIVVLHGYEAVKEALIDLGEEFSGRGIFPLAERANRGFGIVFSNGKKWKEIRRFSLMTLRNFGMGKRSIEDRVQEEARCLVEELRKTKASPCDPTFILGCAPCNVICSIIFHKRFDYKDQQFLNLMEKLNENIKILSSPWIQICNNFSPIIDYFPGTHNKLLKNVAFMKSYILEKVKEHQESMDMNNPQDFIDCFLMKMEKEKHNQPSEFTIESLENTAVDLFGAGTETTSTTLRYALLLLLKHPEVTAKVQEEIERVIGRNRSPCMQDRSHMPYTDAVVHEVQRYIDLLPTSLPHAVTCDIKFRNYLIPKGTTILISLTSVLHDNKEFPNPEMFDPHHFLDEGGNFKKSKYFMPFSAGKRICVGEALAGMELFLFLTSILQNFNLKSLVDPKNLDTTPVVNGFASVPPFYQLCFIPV
Value Type: IC50

INSERT INTO measurements (molecule, reported) VALUES
  ('N#Cc1ccc(COc2cccc(C3CCN(Cc4nc5ccc(C(=O)O)cc5n4C[C@@H]4CCO4)CC3)n2)c(F)c1', '> 10 µM');

* * *

experiment: Efflux ratio of permeability across basolateral to apical side over apical to basolateral side in human Caco-2; assay type: ADME, cell-based
Value Type: efflux ratio

INSERT INTO assay_data (molecule, reported) VALUES
  ('O=C(O)c1ccc2nc(CN3CCC(c4cccc(OCc5ccc(C6COC6)cc5F)n4)CC3)n(C[C@@H]3CCO3)c2c1', 5.26);
